Measured EC50 of individual entries
Molecular target: human FXR (NR1H4) (Homo sapiens, UniProt Q96RI1)
Assay: Human FXR (NR1H4) agonist assessment, FXRE-NanoLuc reporter in HEK293T cells
Assay type: cell-based
Settings: FXR activation, HEK293T FXRE-NanoLuc reporter, 24 hr; read-out: EC50
Description: As those skilled in the art appreciate, various technologies are available for assessment of FXR activation in accordance with the present disclosure. […] In the following day, a 10 μL aliquot of cell culture medium was removed from each well and combined with 40 μL culture medium plus […] assay buffer (containing 20 mM of the luciferase substrate coelenterazine). After 5 min incubation, luminescence was measured using an EnVision plate reader (PerkinElmer). […]

[[record]]
smiles_input = "CC[C@H]1[C@@H](O)[C@@H]2[C@H](CC[C@]3(C)[C@@H]([C@H](C)CCNC(=O)NS(=O)(=O)c4cc(F)cc(F)c4)CC[C@@H]23)[C@@]2(C)CCC(F)(F)C[C@@H]12"
readout_kind = "EC50"
recorded_value = "< 1000 nM"

[[record]]
smiles_input = "CC[C@H]1[C@@H](O)[C@@H]2[C@H](CC[C@]3(C)[C@@H]([C@H](C)CCNC(=O)NS(=O)(=O)c4cccs4)CC[C@@H]23)[C@@]2(C)CCC(F)(F)C[C@@H]12"
readout_kind = "EC50"
recorded_value = "< 1000 nM"


Hi! What's the reported EC50 for CC[C@H]1[C@@H](O)[C@@H]2[C@H](CC[C@]3(C)[C@@H]([C@H](C)CCNC(=O)NS(=O)(=O)C4CCCCC4)CC[C@@H]23)[C@@]2(C)CCCC[C@@H]12 on human FXR (NR1H4) (Homo sapiens, UniProt Q96RI1)?
1000 to 10000 nM

Hi! What's the reported EC50 for CC[C@H]1[C@@H](O)[C@@H]2[C@H](CC[C@]3(C)[C@@H]([C@H](C)CCNC(=O)C(=O)NS(=O)(=O)c4cccs4)CC[C@@H]23)[C@@]2(C)CCCC[C@@H]12 on human FXR (NR1H4) (Homo sapiens, UniProt Q96RI1)?
< 1000 nM

Hi! What's the reported EC50 for C[C@H](CC/C=C/C(=O)O)[C@H]1CC[C@H]2[C@@H]3CC[C@@H]4C[C@H](O)CC[C@]4(C)[C@H]3CC[C@]12C on human FXR (NR1H4) (Homo sapiens, UniProt Q96RI1)?
1000 to 10000 nM

Hi! What's the reported EC50 for C[C@H](CNC(=O)NS(=O)(=O)c1ccc(C(C)(C)CF)cc1)[C@H]1CC[C@H]2[C@@H]3CC[C@@H]4CCCC[C@]4(C)[C@H]3CC[C@]12C on human FXR (NR1H4) (Homo sapiens, UniProt Q96RI1)?
1000 to 10000 nM

* * *

Target: UniProtKB Q96RI1
Sequence (Q96RI1 1-476 isoform Q96RI1-1): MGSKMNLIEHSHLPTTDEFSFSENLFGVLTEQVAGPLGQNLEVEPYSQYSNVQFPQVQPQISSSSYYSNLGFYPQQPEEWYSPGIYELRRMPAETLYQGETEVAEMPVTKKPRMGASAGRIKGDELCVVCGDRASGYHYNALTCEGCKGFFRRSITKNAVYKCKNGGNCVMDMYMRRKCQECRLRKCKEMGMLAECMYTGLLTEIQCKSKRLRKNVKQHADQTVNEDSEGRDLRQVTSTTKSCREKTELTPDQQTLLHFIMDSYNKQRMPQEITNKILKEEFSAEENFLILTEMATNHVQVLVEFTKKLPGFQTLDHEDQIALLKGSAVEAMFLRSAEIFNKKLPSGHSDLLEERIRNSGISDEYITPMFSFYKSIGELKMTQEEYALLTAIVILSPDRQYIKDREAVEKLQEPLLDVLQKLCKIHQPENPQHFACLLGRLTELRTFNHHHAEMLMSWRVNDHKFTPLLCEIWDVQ
Test: Human FXR (NR1H4) agonist assessment, FXRE-NanoLuc reporter in HEK293T cells
Assay type: cell-based
Details: FXR activation, HEK293T FXRE-NanoLuc reporter, 24 hr; read-out: EC50
pEC50: −log10 of the molar value.
Measured pEC50 of individual entries

[[record]]
compound = "CC[C@H]1[C@@H](O)[C@@H]2[C@H](CC[C@]3(C)[C@@H]([C@H](C)CCNC(=O)NS(=O)(=O)c4ccc(C(C)(C)C#N)cc4)CC[C@@H]23)[C@@]2(C)CCCC[C@@H]12 [5-17]"
target_desc = "UniProtKB Q96RI1"
readout_kind = "pEC50"
recorded_value = "> 6.00"


Hi! What's the reported pEC50 for C[C@H](CCCC(=O)O)[C@H]1CC[C@H]2[C@@H]3CC[C@@H]4C[C@H](O)CC[C@]4(C)[C@H]3C[C@H](O)[C@]12C [RC-2] on UniProtKB Q96RI1?
5.00 to 6.00

Hi! What's the reported pEC50 for CC[C@H]1[C@@H](O)[C@@H]2[C@H](CC[C@]3(C)[C@@H]([C@H](C)CCNC(=O)NS(=O)(=O)c4ccc(Br)cc4OC(F)(F)F)CC[C@@H]23)[C@@]2(C)CC[C@H](F)C[C@@H]12 [9-6] on UniProtKB Q96RI1?
> 6.00

Hi! What's the reported pEC50 for CC[C@H]1[C@@H](O)[C@@H]2[C@H](CC[C@]3(C)[C@@H]([C@H](C)CC(=O)NS(=O)(=O)C(C)(C)C)CC[C@@H]23)[C@@]2(C)CCCC[C@@H]12 [4-3] on UniProtKB Q96RI1?
5.00 to 6.00

* * *

Biological target: MRGPRX4 (Homo sapiens)
Test: MRGPRX4 activation, Fluo-8 Ca2+ FLIPR assay in HEK293T cells stably expressing MRGPRX4
Format: cell-based
Parameters: key: fluorescence change dF/F0
Conditions: E3-9, Conc. (Log[M]) −5.4
Use 0.02 as the dividing line for MRGPRX4 activation, Average, with the line itself on the class 1 side and lower values as class 0.

Reference set (2 entries):
[[record]]
molecule = "[2H]C1([2H])CC[C@@]2(C)[C@@H](C1)[C@@H](CC)[C@@H](O)[C@@H]1[C@@H]2CC[C@]2(C)[C@@H]([C@H](C)CCN=C=S)CC[C@@H]12 [14-2]"
discrete_label = "class 1"

[[record]]
molecule = "CC[C@H]1[C@@H](O)[C@H]2[C@@H]3CC[C@](C)([C@H](C)CCNC(=O)NS(=O)(=O)C[C@]45CCC(CC4=O)C5(C)C)[C@H]3CC[C@@H]2[C@@]2(C)CC[C@H](F)C[C@@H]12 [9-5]"
discrete_label = "class 1"


Is reported MRGPRX4 activation, Average greater than or equal to 0.02 here: CC[C@H]1[C@@H](O)[C@@H]2[C@H](CC[C@]3(C)[C@@H]([C@H](C)CCNC(=O)C(=O)NS(=O)(=O)c4cccs4)CC[C@@H]23)[C@@]2(C)CCCC[C@@H]12 [8-2]
class 0

Is reported MRGPRX4 activation, Average greater than or equal to 0.02 here: CC[C@H]1[C@@H](O)[C@@H]2[C@H](CC[C@]3(C)[C@@H]([C@H](C)CCNC(=S)NS(=O)(=O)c4cccs4)CC[C@@H]23)[C@@]2(C)CCC(F)(F)C[C@@H]12 [11-3]
class 0

Is reported MRGPRX4 activation, Average greater than or equal to 0.02 here: CC[C@H]1[C@@H](O)[C@@H]2[C@H](CC[C@]3(C)[C@@H]([C@H](C)CCNC(=O)NS(=O)(=O)c4ccc5c(c4)CCC(C)(C)O5)CC[C@@H]23)[C@@]2(C)CCCC[C@@H]12 [5-29]
class 0

Is reported MRGPRX4 activation, Average greater than or equal to 0.02 here: CC[C@H]1[C@@H](O)[C@@H]2[C@H](CC[C@]3(C)[C@@H]([C@H](C)CCNC(=O)NS(=O)(=O)c4cc(F)ccc4F)CC[C@@H]23)[C@@]2(C)CCC(F)(F)C[C@@H]12 [10-2]
class 0

Is reported MRGPRX4 activation, Average greater than or equal to 0.02 here: CC[C@H]1[C@@H](O)[C@@H]2[C@H](CC[C@]3(C)[C@@H]([C@H](C)CCNC(=O)NS(=O)(=O)c4cc(F)cc(F)c4)CC[C@@H]23)[C@@]2(C)CCC(F)(F)C[C@@H]12 [10-3]
class 0

* * *

Biological target: MRGPRX4 (Homo sapiens, UniProt Q96LA9)
Sequence (Q96LA9 whole entry): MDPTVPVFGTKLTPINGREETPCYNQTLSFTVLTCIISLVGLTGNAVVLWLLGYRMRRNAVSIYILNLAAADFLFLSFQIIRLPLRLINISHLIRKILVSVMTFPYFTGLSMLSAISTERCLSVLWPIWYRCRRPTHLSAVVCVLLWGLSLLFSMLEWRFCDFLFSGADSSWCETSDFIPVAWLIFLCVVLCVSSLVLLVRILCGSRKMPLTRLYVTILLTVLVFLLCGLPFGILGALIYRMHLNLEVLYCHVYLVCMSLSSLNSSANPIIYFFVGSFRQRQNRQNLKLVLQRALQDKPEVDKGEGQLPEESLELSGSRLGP
Assay: MRGPRX4 activation, Fluo-8 Ca2+ FLIPR assay in HEK293T cells stably expressing MRGPRX4
Format: cell-based
Conditions: Conc. (Log[M]) −4.5
Use 0.03 as the dividing line for MRGPRX4 activation, fluorescence change (dF/F0), Average, with the line itself on the Condition met side and lower values as Condition not met.

[[record]]
compound = "CC[C@H]1[C@@H](O)[C@@H]2[C@H](CC[C@]3(C)[C@@H]([C@H](C)CCNC(=O)NS(=O)(=O)c4ccc(C5(CO)CCCC5)cc4)CC[C@@H]23)[C@@]2(C)CCCC[C@@H]12 [5-21]"
discrete_label = "Condition not met"


Is reported MRGPRX4 activation, fluorescence change (dF/F0), Average greater than or equal to 0.03 here: CC[C@H]1[C@@H](O)[C@@H]2[C@H](CC[C@]3(C)[C@@H]([C@H](C)CCNC(=O)NS(=O)(=O)c4ccc5c(c4)OCO5)CC[C@@H]23)[C@@]2(C)CCCC[C@@H]12 [5-6]
Condition met

Is reported MRGPRX4 activation, fluorescence change (dF/F0), Average greater than or equal to 0.03 here: CC[C@H]1[C@@H](O)[C@@H]2[C@H](CC[C@]3(C)[C@@H]([C@H](C)CCNC(=O)NS(=O)(=O)c4ccc(C(C)(C)CN)cc4)CC[C@@H]23)[C@@]2(C)CCCC[C@@H]12 [5-18]
Condition not met

Is reported MRGPRX4 activation, fluorescence change (dF/F0), Average greater than or equal to 0.03 here: CC[C@H]1[C@@H](OC(=O)c2cccc(I)c2)[C@@H]2[C@H](CC[C@]3(C)C([C@H](C)CCC(=O)OC)=CC[C@@H]23)[C@@]2(C)CCCC[C@@H]12 [3-1]
Condition not met
